- systemName: T1, C57BL/6 mouse SIRP-α D1 domain (mouse (C57BL/6 strain), UniProt P97797 32-148)
- T1 sequence: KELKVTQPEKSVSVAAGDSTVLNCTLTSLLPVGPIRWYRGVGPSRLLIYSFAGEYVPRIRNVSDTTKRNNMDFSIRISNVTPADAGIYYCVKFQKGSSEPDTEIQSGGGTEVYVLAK
- testName: SPR, Langmuir fit
// reported koff for each item listed
readoutLabel: koff (s⁻¹)

[[record]]
binder = "S22 (scFv, V domains shown, also called clone 22) VH: DVQLVESGGGVVRPGESLRLSCAASGFTFSSYAMSWVRQAPGKGLEWLAGISAGGSDTYYIDSVKGRFTISRRQFQEQSLSPNEPALTAEDTAVYYCARETWNHLFDYWGLGTLVTVSS VL: ALTQPASVSANPGETVKITCSGGDYYSTYYGWYQQKSPGSAPVTVIHSDDKRPSDIPSRFSGSASGSAATLTIAGVRVEDEAVYFCGAYDGRTYINTFGAGTTLTVL"
recordedresult = 0.000736

[[record]]
binder = "S70 (scFv, V domains shown, also called clone 70) VH: DVQLVESGGGVVRPGESLRLSCAASGFTFSSYAMSWVRQAPGKGLEWLAGISAGGSDAYYIDSVKGRFTISRDNSKNSLYLQMNSLTAEDTAVYYCARETWNHLFDYWGLGTLVTVSS VL: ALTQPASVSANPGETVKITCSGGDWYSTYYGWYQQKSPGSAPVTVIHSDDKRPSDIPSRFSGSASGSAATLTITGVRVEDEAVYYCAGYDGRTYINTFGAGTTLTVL"
recordedresult = 0.000987

[[record]]
binder = "S74 (scFv, V domains shown, also called clone 74) VH: DVQLVESGGGVVRPGESLRLSCAASGFTFSSNAMSWVRQAPGKGLEWLAGISAGDSDTYYPASVKGRFTISRDNPKNTLYLQMNTLTAEDTAVYYCARETWNHLFDYWGLGTLVTVSS VL: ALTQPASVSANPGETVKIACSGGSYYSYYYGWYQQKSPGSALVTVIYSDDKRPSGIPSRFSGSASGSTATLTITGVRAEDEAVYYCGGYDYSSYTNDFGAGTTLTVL"
recordedresult = 0.00137

[[record]]
binder = "S65 (scFv, V domains shown, also called clone 65) VH: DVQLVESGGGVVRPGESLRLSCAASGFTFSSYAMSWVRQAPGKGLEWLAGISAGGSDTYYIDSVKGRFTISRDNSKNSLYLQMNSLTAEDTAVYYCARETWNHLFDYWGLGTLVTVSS VL: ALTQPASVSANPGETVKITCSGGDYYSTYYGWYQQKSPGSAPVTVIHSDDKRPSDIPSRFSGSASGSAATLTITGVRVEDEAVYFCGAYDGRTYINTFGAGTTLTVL"
recordedresult = 0.000786

[[record]]
binder = "S202 (scFv, V domains shown) VH: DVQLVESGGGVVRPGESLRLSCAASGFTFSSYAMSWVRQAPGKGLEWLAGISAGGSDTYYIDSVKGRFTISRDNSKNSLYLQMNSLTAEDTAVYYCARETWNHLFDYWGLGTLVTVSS VL: ALTQPASVSANPGETVKITCSGGGYYSTYYGWYQQRSPGSAPVTVIHSDDKRPSDIPSRFSGSASGSAATLTITGVRVEDEAVYYCAGYDGRTYLNTFGAGTTLTVL"
recordedresult = 0.00063

